experiment: Cytotoxicity against human colon 502713 cells after 48 hrs by MTT assay; format: functional, cell-based; conditions: Homo sapiens, 502713, 48 h
reported-endpoint: IC50 (µg/mL)
Give bare numbers, in µg/mL.

Previously resolved entries follow.
sample-smiles	units	IC50
CCCC(=O)O[C@@H]1CC(C)(C)C[C@H]2C3=CC[C@@H]4[C@@]5(C)CCC(=O)C(C)(C)[C@@H]5CC[C@@]4(C)[C@]3(C)CC[C@@]12C(=O)O	µg/mL	25.2
CCC(=O)O[C@@H]1CC(C)(C)C[C@H]2C3=CC[C@@H]4[C@@]5(C)CCC(=O)C(C)(C)[C@@H]5CC[C@@]4(C)[C@]3(C)CC[C@@]12C(=O)O	µg/mL	25.4
CCC(=O)O[C@@H]1CC(C)(C)C[C@H]2C3=CC[C@@H]4[C@@]5(C)CCC(=O)C(C)(C)[C@@H]5CC[C@@]4(C)[C@]3(C)CC[C@@]12C(=O)OC	µg/mL	22.4

For every item in the list below, what is its measured IC50?
1. CC(C)C(=O)O[C@@H]1CC(C)(C)C[C@H]2C3=CC[C@@H]4[C@@]5(C)CCC(=O)C(C)(C)[C@@H]5CC[C@@]4(C)[C@]3(C)CC[C@@]12C(=O)O
2. CCCC(=O)O[C@@H]1CC(C)(C)C[C@H]2C3=CC[C@@H]4[C@@]5(C)CCC(=O)C(C)(C)[C@@H]5CC[C@@]4(C)[C@]3(C)CC[C@@]12C(=O)OC
3. CC(=O)O[C@@H]1CC(C)(C)C[C@H]2C3=CC[C@@H]4[C@@]5(C)CCC(=O)C(C)(C)[C@@H]5CC[C@@]4(C)[C@]3(C)CC[C@@]12C(=O)O

OUT:
37.6
21.1
34.4

Give measured IC50 for every item shown.
1. COC(=O)[C@@]12CC[C@]3(C)C(=CC[C@@H]4[C@@]5(C)CCC(=O)C(C)(C)[C@@H]5CC[C@]43C)[C@@H]1CC(C)(C)C[C@H]2OC(C)=O
2. C/C=C(/C)C(=O)O[C@@H]1CC(C)(C)C[C@H]2C3=CC[C@@H]4[C@@]5(C)CCC(=O)C(C)(C)[C@@H]5CC[C@@]4(C)[C@]3(C)CC[C@@]12C(=O)O
3. COC(=O)[C@@]12CC[C@]3(C)C(=CC[C@@H]4[C@@]5(C)CCC(=O)C(C)(C)[C@@H]5CC[C@]43C)[C@@H]1CC(C)(C)C[C@H]2OC(=O)C(C)C

OUT:
1: 34.6; 2: 21.3; 3: 38.1

// input: 2 molecules below; output: IC50 for each
1. COC(=O)[C@@]12CC[C@]3(C)C(=CC[C@@H]4[C@@]5(C)CCC(=O)C(C)(C)[C@@H]5CC[C@]43C)[C@@H]1CC(C)(C)C[C@H]2O
2. CC1(C)C[C@@H](OC(=O)c2ccccc2)[C@]2(C(=O)O)CC[C@]3(C)C(=CC[C@@H]4[C@@]5(C)CCC(=O)C(C)(C)[C@@H]5CC[C@]43C)[C@@H]2C1

OUT:
[72.4, 51.2]
